- test_name: Clearance in mouse
- Assay type: ADME, organism-based
- assay_setup: in vivo
readout_kind: clearance (mL/min/kg)

- compound: "CC(C)(O/N=C(\\C(=O)N[C@@H]1C(=O)N(S(=O)(=O)O)[C@@H]1CNC(=O)c1cc(-c2cc(=O)c(O)cn2O)no1)c1csc(N)n1)C(=O)O (stereo in doubt)"
  result: 34.7
